Reported pIC50 values for the following compounds.
# subject_of_test: recombinant human dipeptidyl peptidase 4 (rhDPP4) (Homo sapiens)
# Sequence (P27487 whole entry): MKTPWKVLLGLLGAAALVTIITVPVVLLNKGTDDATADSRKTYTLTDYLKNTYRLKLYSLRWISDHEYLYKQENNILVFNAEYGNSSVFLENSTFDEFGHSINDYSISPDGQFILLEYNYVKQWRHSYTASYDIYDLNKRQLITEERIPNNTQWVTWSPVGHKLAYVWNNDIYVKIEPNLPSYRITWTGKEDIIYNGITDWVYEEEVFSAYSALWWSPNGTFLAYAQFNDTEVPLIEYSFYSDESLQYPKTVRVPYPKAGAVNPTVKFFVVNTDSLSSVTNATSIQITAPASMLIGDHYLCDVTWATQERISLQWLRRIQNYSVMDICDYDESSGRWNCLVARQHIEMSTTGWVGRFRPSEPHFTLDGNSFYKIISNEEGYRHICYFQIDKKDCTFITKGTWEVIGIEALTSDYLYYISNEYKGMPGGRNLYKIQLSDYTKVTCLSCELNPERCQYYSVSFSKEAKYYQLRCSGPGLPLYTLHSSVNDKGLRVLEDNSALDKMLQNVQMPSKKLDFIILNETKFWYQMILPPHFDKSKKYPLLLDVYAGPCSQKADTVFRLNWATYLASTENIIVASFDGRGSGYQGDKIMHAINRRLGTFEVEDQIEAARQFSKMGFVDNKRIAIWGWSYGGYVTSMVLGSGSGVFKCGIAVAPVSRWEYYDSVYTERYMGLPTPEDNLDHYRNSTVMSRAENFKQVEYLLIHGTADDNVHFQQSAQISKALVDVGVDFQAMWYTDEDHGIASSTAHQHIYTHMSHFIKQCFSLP
# measurement_protocol: rhDPP4 inhibitor screening experiment
# details: Gly-Pro-aminofluorescein substrate, 1 hour at room temperature
// pIC50 here means minus log10 of the molar concentration (mol/L)

compound	subject_of_test	reported_measurement
CS[C@H]1O[C@@H](c2ccc(Cl)c(Cc3ccc(O[C@@H]4CCN([C@H]5CO[C@H](c6cc(F)ccc6F)[C@@H](N)C5)C4)cc3)c2C)[C@H](O)[C@@H](O)[C@@H]1O	recombinant human dipeptidyl peptidase 4 (rhDPP4) (Homo sapiens)	6.95
CS[C@H]1O[C@@H](c2cccc(Cc3ccc(OC4CCN([C@H]5CO[C@H](c6cc(F)ccc6F)[C@@H](N)C5)C4)cc3)c2)[C@H](O)[C@@H](O)[C@@H]1O (stereo partly shown)	recombinant human dipeptidyl peptidase 4 (rhDPP4) (Homo sapiens)	6.94

Which pIC50 is reported for this compound? CS[C@H]1O[C@@H](c2cc(Cc3ccc(O[C@@H]4CCN([C@H]5CO[C@H](c6cc(F)ccc6F)[C@@H](N)C5)C4)cc3)c(F)cc2F)[C@H](O)[C@@H](O)[C@@H]1O
7.57

Also, COc1cc(F)c(Cc2ccc(O[C@@H]3CCN([C@H]4CO[C@H](c5cc(F)ccc5F)[C@@H](N)C4)C3)cc2)cc1[C@@H]1O[C@H](SC)[C@@H](O)[C@H](O)[C@H]1O please.
7.49

And what about the compound CS[C@H]1O[C@@H](c2cc(Cc3ccc(O[C@@H]4CCN([C@H]5CO[C@H](c6cc(F)ccc6F)[C@@H](N)C5)C4)cc3)c(Cl)cc2C)[C@H](O)[C@@H](O)[C@@H]1O ?
6.98

Same thing, different compound: CS[C@H]1O[C@@H](c2cc(C)c(Cl)c(Cc3ccc(OC4CCN([C@H]5CO[C@H](c6cc(F)ccc6F)[C@@H](N)C5)C4)cc3)c2)[C@H](O)[C@@H](O)[C@@H]1O (stereo partly shown)
6.78

Request: CS[C@H]1O[C@@H](c2ccc(F)c(Cc3ccc(O[C@@H]4CCN([C@H]5CO[C@H](c6cc(F)ccc6F)[C@@H](N)C5)C4)cc3)c2)[C@H](O)[C@@H](O)[C@@H]1O
7.51
